Readings of Resistance Factor W574L for the listed compounds
- MEASURED_TARGET: Arabidopsis thaliana W574L-mutant ALS (Arabidopsis thaliana, UniProt P17597, E575Q/W574L)
- Construct: vector-encoded N-terminal fusion of pET-32a(+) (Trx/His/S tag by own knowledge); made in house; host or cells: Escherichia coli AD494
- Sequence (P17597 56-670 W574L/E575Q): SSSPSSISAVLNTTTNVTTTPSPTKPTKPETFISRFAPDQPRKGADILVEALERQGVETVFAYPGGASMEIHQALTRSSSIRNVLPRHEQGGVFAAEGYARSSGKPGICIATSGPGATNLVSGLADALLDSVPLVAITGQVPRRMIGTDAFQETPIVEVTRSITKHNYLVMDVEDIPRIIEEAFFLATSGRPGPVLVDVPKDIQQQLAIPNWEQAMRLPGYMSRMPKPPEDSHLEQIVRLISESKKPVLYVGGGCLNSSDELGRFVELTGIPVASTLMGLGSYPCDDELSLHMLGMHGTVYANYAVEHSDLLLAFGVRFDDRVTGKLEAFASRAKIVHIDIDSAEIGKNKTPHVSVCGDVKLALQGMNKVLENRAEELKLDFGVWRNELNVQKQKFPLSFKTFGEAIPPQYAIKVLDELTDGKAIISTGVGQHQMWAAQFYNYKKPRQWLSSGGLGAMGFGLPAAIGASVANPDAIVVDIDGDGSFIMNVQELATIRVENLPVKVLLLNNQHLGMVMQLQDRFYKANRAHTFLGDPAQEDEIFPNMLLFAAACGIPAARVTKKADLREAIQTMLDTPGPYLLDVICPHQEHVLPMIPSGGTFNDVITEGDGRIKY
- METHOD_NOTES: biochemical
- CONDITION_SET: relative to WT; from measured pI50
READOUT_KIND: Resistance Factor W574L

COC(=O)c1ccc(CNS(C)(=O)=O)cc1S(=O)(=O)NC(=O)Nc1nc(OC)cc(OC)n1 [Mesosulfaron-methyl, mesosulfuron-methyl] | 31623
COC(=O)c1sccc1S(=O)(=O)NC(=O)Nc1nc(C)nc(OC)n1 [Thifensulfuron-Methyl, thifensulfuron-methyl] | 1585
CCCOc1nn(C(=O)[N-]S(=O)(=O)c2ccccc2C(=O)OC)c(=O)n1C.[Na+] [Propoxycarbazone, propoxycarbazone-sodium] | 316
COc1cc(OC)nc(NC(=O)NS(=O)(=O)c2ncccc2C(F)(F)F)n1 [Flazasulfuron, flazasulfuron] | 3981
COC(=O)c1ccccc1S(=O)(=O)NC(=O)Nc1nc(C)nc(OC)n1 [Metsulfuron-methyl, metsulfuron-methyl] | 1000

###

Readings of Resistance Factor P197S & W574L for the listed molecules
- MEASURED_TARGET: mixture of P197S and W574L ALS enzymes (Arabidopsis thaliana, UniProt P17597)
- Construct: crude E. coli extract was used
- Format: biochemical
- CONDITION_SET: relative to WT; calculated
READOUT_KIND: Resistance Factor P197S & W574L

COC(=O)c1sccc1S(=O)(=O)NC(=O)Nc1nc(C)nc(OC)n1 | 631
COc1cc(OC)n2nc(S(=O)(=O)Nc3c(Cl)ccc(C)c3Cl)nc2n1 | 2512
COCc1cnc(C2=NC(C)(C(C)C)C(=O)N2)c(C(=O)O)c1 (stereo not shown) | 20
CCS(=O)(=O)c1cccnc1S(=O)(=O)NC(=O)Nc1nc(OC)cc(OC)n1 | 63
CCS(=O)(=O)c1nc2ccccn2c1S(=O)(=O)NC(=O)Nc1nc(OC)cc(OC)n1 | 10000
COc1cc(OC)nc(NC(=O)NS(=O)(=O)c2ncccc2C(=O)N(C)C)n1 | 251
CCCOc1nn(C(=O)[N-]S(=O)(=O)c2ccccc2C(=O)OC)c(=O)n1C.[Na+] [Propoxycarbazone, propoxycarbazone-sodium] | 200

###

- MEASURED_TARGET: Arabidopsis thaliana S653N-mutant ALS (Arabidopsis thaliana, UniProt P17597, E575Q/S653N)
- Construct: vector-encoded N-terminal fusion of pET-32a(+) (Trx/His/S tag by own knowledge); made in house; host or cells: Escherichia coli AD494
- METHOD_NOTES: biochemical
- CONDITION_SET: measured; crude extract of E. coli expressed enzyme; read-out: pI50 S653N (converted)
READOUT_KIND: IC50 (nM)

COc1cc(OC)nc(NC(=O)NS(=O)(=O)c2ncccc2C(F)(F)F)n1 | 0.316
COc1cc(OC)nc(NC(=O)NS(=O)(=O)c2ncccc2C(=O)N(C)C)n1 | 2510
CCS(=O)(=O)c1cccnc1S(=O)(=O)NC(=O)Nc1nc(OC)cc(OC)n1 | 20
COc1cc(OC)nc(Oc2cccc(Oc3nc(OC)cc(OC)n3)c2C(=O)O)n1 [Bispyribac-sodium, bispyribac-sodium] | 251
COC(=O)c1sccc1S(=O)(=O)NC(=O)Nc1nc(C)nc(OC)n1 | 200

###

- MEASURED_TARGET: mixture of S653N and W574L ALS enzymes (Arabidopsis thaliana, UniProt P17597)
- Construct: crude E. coli extract was used
- Assay type: biochemical
- CONDITION_SET: relative to WT; calculated
READOUT_KIND: Resistance Factor S653N & W574L

COC(=O)c1ccc(CNS(C)(=O)=O)cc1S(=O)(=O)NC(=O)Nc1nc(OC)cc(OC)n1 [Mesosulfaron-methyl, mesosulfuron-methyl] | 200
COc1cc(OC)nc(NC(=O)NS(=O)(=O)c2ncccc2C(F)(F)F)n1 [Flazasulfuron, flazasulfuron] | 40
COc1ncc(F)c2nc(S(=O)(=O)Nc3c(F)cccc3F)nn12 [Florasulam, florasulam] | 126
COc1cc(OC)nc(NC(=O)NS(=O)(=O)c2cc(NC=O)ccc2C(=O)N(C)C)n1 [Foramsulfuron, foramsulfuron] | 316
COC(=O)c1ccccc1S(=O)(=O)NC(=O)Nc1nc(C)nc(OC)n1 [Metsulfuron-methyl, metsulfuron-methyl] | 79
COC(=O)c1sccc1S(=O)(=O)NC(=O)Nc1nc(C)nc(OC)n1 [Thifensulfuron-Methyl, thifensulfuron-methyl] | 100

###

Readings of pI50 S653N & W574L for the listed molecules
- MEASURED_TARGET: mixture of S653N and W574L ALS enzymes (Arabidopsis thaliana, UniProt P17597)
- Construct: crude E. coli extract was used
- Assay type: biochemical
- CONDITION_SET: calculated for a mixture of equal activities of the two enzymes; pI50=3.0 used where measured <4
READOUT_KIND: pI50 S653N & W574L

CCS(=O)(=O)c1cccnc1S(=O)(=O)NC(=O)Nc1nc(OC)cc(OC)n1 | 6.3
COc1cc(OC)nc(NC(=O)NS(=O)(=O)N(C)S(C)(=O)=O)n1 | 5.6
COc1cc(OC)n2nc(NS(=O)(=O)c3c(C(F)(F)F)ccnc3OC)nc2n1 | 5.3
CCS(=O)(=O)c1nc2ccccn2c1S(=O)(=O)NC(=O)Nc1nc(OC)cc(OC)n1 | 5.4
COc1ncc(F)c2nc(S(=O)(=O)Nc3c(F)cccc3F)nn12 | 5.7
COC(=O)c1sccc1S(=O)(=O)NC(=O)Nc1nc(C)nc(OC)n1 | 5.4
COc1cc(OC)nc(Oc2cccc(Oc3nc(OC)cc(OC)n3)c2C(=O)O)n1 [Bispyribac-sodium, bispyribac-sodium] | 5.8

###

- MEASURED_TARGET: Arabidopsis thaliana S653N-mutant ALS (Arabidopsis thaliana, UniProt P17597, E575Q/S653N)
- Construct: vector-encoded N-terminal fusion of pET-32a(+) (Trx/His/S tag by own knowledge); made in house; host or cells: Escherichia coli AD494
- METHOD_NOTES: biochemical
- CONDITION_SET: relative to WT; from measured pI50
READOUT_KIND: Resistance Factor S653N

COC(=O)c1ccc(CNS(C)(=O)=O)cc1S(=O)(=O)NC(=O)Nc1nc(OC)cc(OC)n1 | 16
COC(=O)c1ccccc1S(=O)(=O)NC(=O)Nc1nc(C)nc(OC)n1 | 6
COc1cc(OC)nc(Oc2cccc(Oc3nc(OC)cc(OC)n3)c2C(=O)O)n1 [Bispyribac-sodium, bispyribac-sodium] | 13
COc1cc(OC)nc(NC(=O)NS(=O)(=O)c2ncccc2C(F)(F)F)n1 | 0
COc1ncc(F)c2nc(S(=O)(=O)Nc3c(F)cccc3F)nn12 | 8
COc1cc(OC)nc(NC(=O)NS(=O)(=O)c2ncccc2C(=O)N(C)C)n1 | 20
COCc1cnc(C2=NC(C)(C(C)C)C(=O)N2)c(C(=O)O)c1 (stereo not shown) | >25

###

- MEASURED_TARGET: Arabidopsis thaliana S653N-mutant ALS (Arabidopsis thaliana, UniProt P17597, E575Q/S653N)
- Construct: vector-encoded N-terminal fusion of pET-32a(+) (Trx/His/S tag by own knowledge); made in house; host or cells: Escherichia coli AD494
- METHOD_NOTES: biochemical
- CONDITION_SET: measured; crude extract of E. coli expressed enzyme; read-out: pI50 S653N (converted)
READOUT_KIND: IC50 (nM)

CCS(=O)(=O)c1nc2ccccn2c1S(=O)(=O)NC(=O)Nc1nc(OC)cc(OC)n1 [Sulfosulfuron, sulfosulfuron] | 126
COc1cc(OC)nc(NC(=O)NS(=O)(=O)N(C)S(C)(=O)=O)n1 [Amidosulfuron, amidosulfuron] | 7.94
COc1cc(OC)nc(NC(=O)NS(=O)(=O)c2cc(NC=O)ccc2C(=O)N(C)C)n1 [Foramsulfuron, foramsulfuron] | 63.1
COc1cc(OC)n2nc(S(=O)(=O)Nc3c(Cl)ccc(C)c3Cl)nc2n1 [Metosulam, metosulam] | 6.31

###

- MEASURED_TARGET: mixture of P197S and W574L ALS enzymes (Arabidopsis thaliana, UniProt P17597)
- Construct: crude E. coli extract was used
- Format: biochemical
- CONDITION_SET: calculated for a mixture of equal activities of the two enzymes; pI50=3.0 used where measured <4
READOUT_KIND: pI50 P197S & W574L

COc1cc(OC)nc(NC(=O)NS(=O)(=O)c2ncccc2C(F)(F)F)n1 [Flazasulfuron, flazasulfuron] | 6.2
CCS(=O)(=O)c1nc2ccccn2c1S(=O)(=O)NC(=O)Nc1nc(OC)cc(OC)n1 [Sulfosulfuron, sulfosulfuron] | 3.6
COc1ncc(F)c2nc(S(=O)(=O)Nc3c(F)cccc3F)nn12 [Florasulam, florasulam] | 5.5
COc1cc(OC)n2nc(S(=O)(=O)Nc3c(Cl)ccc(C)c3Cl)nc2n1 [Metosulam, metosulam] | 5.2
